- Target Of Assay: alcohol dehydrogenase
- Assay Info: Dissociation of binary complex of alcohol dehydrogenase with NAD
- Condition Set: read-out: dissociation constant of the complex
Attribute Measured: Kd

{"columns": ["Cpd Smiles", "Target Of Assay", "Attribute Measured", "Assay Result"],
 "data": [
  ["NC(=O)c1ccc[n+]([C@@H]2O[C@H](COP(=O)([O-])OP(=O)(O)OC[C@H]3O[C@@H](n4cnc5c(N)ncnc54)[C@H](O)[C@@H]3O)[C@@H](O)[C@H]2O)c1", "alcohol dehydrogenase", "Kd", "~1 µM"]
]}
